Biological target: UniProtKB Q8TDV5
Sequence (Q8TDV5 1-335): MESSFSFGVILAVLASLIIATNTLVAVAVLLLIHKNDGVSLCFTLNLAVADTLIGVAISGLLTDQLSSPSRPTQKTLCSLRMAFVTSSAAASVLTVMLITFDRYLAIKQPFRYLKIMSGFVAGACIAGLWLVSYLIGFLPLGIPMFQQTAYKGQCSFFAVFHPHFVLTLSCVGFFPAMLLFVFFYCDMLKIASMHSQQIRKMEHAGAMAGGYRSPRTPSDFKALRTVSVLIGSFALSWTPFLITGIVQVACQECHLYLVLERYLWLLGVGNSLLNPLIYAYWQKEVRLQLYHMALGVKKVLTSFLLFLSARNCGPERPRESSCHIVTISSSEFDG
Experiment: Functional cellular assay measuring GPR119-mediated cAMP release (HTRF) in HEK-293 cells stably expressing recombinant GPR119
Settings: cell line expressing human GPR119, 30 minutes at room temperature
pEC50: −log10 of the molar value.
Outcome: y for pEC50 of at least 6; n for anything lower.

Q) Assess whether reported pEC50 for CN(C)C(=O)C1CN(c2ncc(N3CC[C@@H](Oc4ccc(C(=O)c5ccc(F)cc5)cc4)C3=O)cn2)C1 sits at 6 or higher.
A) y

Q) Assess whether reported pEC50 for [2H]C([2H])([2H])N(C(=O)C1CN(c2ncc(N3CC[C@@H](Oc4ccc(OCC(F)(F)F)nc4)C3=O)cn2)C1)C([2H])([2H])[2H] sits at 6 or higher.
A) y

Q) Assess whether reported pEC50 for Cc1cnc(-c2ccc(O[C@@H]3CCN(c4cnc(N5CC(C(=O)N(C)C)C5)nc4)C3=O)cn2)s1 sits at 6 or higher.
A) y

Q) Assess whether reported pEC50 for CN(C)C(=O)CC1CN(c2ncc(N3CC[C@@H](Oc4ccc(OCC(F)(F)F)nc4)C3=O)cn2)C1 sits at 6 or higher.
A) n

Q) Assess whether reported pEC50 for NC(=O)C1CN(c2ccc(N3CC[C@@H](Oc4ccc(OCC(F)(F)F)nc4)C3=O)cn2)C1 sits at 6 or higher.
A) y

Q) Assess whether reported pEC50 for O=C(O)C1CN(c2ncc(N3CC[C@@H](Oc4ccc(OCC(F)(F)F)nc4)C3=O)cn2)C1 sits at 6 or higher.
A) n

Q) Assess whether reported pEC50 for CS(=O)(=O)C1CN(c2ncc(N3CC[C@H](Oc4ccc(C(=O)C5CC5)cc4)C3=O)cn2)C1 sits at 6 or higher.
A) n

Q) Assess whether reported pEC50 for NC(=O)C1CN(c2ncc(N3CC[C@@H](Oc4ccc(OCC(F)(F)F)nc4)C3=O)cn2)C1 sits at 6 or higher.
A) y

Q) Assess whether reported pEC50 for CN(C)C(=O)C1CN(c2ncc(N3CC[C@@H](Oc4ccc(-c5nccs5)cc4)C3=O)cn2)C1 sits at 6 or higher.
A) y

Q) Assess whether reported pEC50 for CS(=O)(=O)C1CN(c2ncc(N3CC[C@@H](Oc4ccc(Oc5ccc(F)cc5)nc4)C3=O)cn2)C1 sits at 6 or higher.
A) y

Q) Assess whether reported pEC50 for CN(C)C(=O)C1CN(c2ncc(N3CC[C@@H](Oc4ccc(OCC5CC5)nc4)C3=O)cc2F)C1 sits at 6 or higher.
A) y

Q) Assess whether reported pEC50 for CN(C(=O)C1CN(c2ncc(N3CC[C@@H](Oc4ccc(OCC(F)(F)F)nc4)C3=O)cn2)C1)C1CC1 sits at 6 or higher.
A) y

Q) Assess whether reported pEC50 for O=C(C1CN(c2ncc(N3CC[C@@H](Oc4ccc(OCC(F)(F)F)nc4)C3=O)cn2)C1)N1CCC1 sits at 6 or higher.
A) y
